# Test system: LXRb homodimer (NR concentration 270 nM)
# assay.procedure: PBM binding z-score (relative to random genomic background probes); higher = stronger binding; sequences stand for … in GC…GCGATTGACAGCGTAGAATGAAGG
outcome.measure: PBM binding z-score

{"columns": ["polymer.sequence", "tested.target", "PBM binding z-score"],
 "data": [
  ["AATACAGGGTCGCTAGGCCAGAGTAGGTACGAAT", "LXRb homodimer (NR concentration 270 nM)", -0.053]
]}

Tell me measured PBM binding z-score for ATATGTAGGTTAGAGTCATTCAGAAAGTAGGGAA please.
0.605

Tell me measured PBM binding z-score for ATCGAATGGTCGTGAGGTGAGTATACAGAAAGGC please.
-0.124

Tell me measured PBM binding z-score for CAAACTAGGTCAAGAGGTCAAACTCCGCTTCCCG please.
2.74

Tell me measured PBM binding z-score for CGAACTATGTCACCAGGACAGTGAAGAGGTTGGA please.
-0.182

Tell me measured PBM binding z-score for TCTGCTATGTCAACGATGGTCAGCTAATCTGCTA please.
-0.553

Tell me measured PBM binding z-score for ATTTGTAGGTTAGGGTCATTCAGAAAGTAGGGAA please.
3.24

Tell me measured PBM binding z-score for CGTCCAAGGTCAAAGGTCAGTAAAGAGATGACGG please.
2

Tell me measured PBM binding z-score for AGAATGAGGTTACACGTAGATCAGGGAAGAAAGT please.
-0.022

Tell me measured PBM binding z-score for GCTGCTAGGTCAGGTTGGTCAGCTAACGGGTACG please.
-0.325

Tell me measured PBM binding z-score for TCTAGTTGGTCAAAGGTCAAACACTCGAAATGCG please.
2.77

Tell me measured PBM binding z-score for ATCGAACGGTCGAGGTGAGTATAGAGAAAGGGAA please.
-0.587

###

# System: PXR homodimer (NR concentration 270 nM)
# assay.procedure: PBM binding z-score (relative to random genomic background probes); higher = stronger binding; sequences stand for … in GC…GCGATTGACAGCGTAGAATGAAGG
outcome.measure: PBM binding z-score
Kindly provide the number alone.

{"columns": ["polymer.sequence", "PBM binding z-score"],
 "data": [
  ["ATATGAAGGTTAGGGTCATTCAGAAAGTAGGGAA", 2.32],
  ["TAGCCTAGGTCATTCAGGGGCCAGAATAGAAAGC", 0.043],
  ["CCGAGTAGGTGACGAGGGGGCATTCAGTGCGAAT", 5.4],
  ["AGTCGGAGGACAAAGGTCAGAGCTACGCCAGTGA", 0.166],
  ["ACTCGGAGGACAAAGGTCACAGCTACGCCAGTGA", 0.867],
  ["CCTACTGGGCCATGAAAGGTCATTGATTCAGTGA", 1.71],
  ["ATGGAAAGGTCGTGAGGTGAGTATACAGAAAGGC", 1.13],
  ["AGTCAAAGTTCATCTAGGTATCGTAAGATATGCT", 5.44]
]}

Tell me measured PBM binding z-score for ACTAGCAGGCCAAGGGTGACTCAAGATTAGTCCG please.
-0.354

Tell me measured PBM binding z-score for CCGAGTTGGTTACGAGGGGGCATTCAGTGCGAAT please.
7.65

Tell me measured PBM binding z-score for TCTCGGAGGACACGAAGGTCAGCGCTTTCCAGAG please.
0.985

Tell me measured PBM binding z-score for TCGAGTAGGTTCCGGGGGCATTCAGGGATGAAGA please.
1.13

Tell me measured PBM binding z-score for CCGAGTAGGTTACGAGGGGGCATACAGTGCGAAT please.
2.55

Tell me measured PBM binding z-score for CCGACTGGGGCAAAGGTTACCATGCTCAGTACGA please.
-0.702

Tell me measured PBM binding z-score for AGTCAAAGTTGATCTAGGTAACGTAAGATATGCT please.
-0.146

Tell me measured PBM binding z-score for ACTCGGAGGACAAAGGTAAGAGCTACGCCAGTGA please.
-0.386
